# target.system: CDK4/cyclin D1 (Homo sapiens, UniProt P11802)
# Construct: purchased Reaction Biology Corporation
# Sequence (P11802 whole entry): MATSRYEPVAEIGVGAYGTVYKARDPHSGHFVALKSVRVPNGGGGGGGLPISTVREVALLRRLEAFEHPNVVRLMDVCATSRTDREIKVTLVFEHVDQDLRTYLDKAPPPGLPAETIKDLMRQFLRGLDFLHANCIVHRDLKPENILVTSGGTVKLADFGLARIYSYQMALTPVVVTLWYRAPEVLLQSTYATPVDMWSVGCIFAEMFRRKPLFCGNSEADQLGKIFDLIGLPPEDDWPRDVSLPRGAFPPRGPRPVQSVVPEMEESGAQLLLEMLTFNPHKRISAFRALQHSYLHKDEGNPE
# Sequence (P24385 whole entry partner): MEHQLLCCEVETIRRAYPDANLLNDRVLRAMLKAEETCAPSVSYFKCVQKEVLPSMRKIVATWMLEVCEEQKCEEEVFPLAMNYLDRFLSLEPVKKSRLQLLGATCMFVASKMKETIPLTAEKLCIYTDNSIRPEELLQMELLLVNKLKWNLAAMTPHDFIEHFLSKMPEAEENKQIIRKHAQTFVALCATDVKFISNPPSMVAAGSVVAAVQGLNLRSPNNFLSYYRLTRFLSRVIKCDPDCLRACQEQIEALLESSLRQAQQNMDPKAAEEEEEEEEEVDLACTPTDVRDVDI
# test: Kinase inhibition assay
# Assay type: biochemical
# assay.conditions: 10 μM ATP; 5-dose IC50 mode
measured.property: IC50

In [3]: df
Out[3]:
                              smiles_string  measured_property  recorded_result
0  CN1CCN(c2ccc(Nc3ncc(/C=C/C#N)c(NC4CCCC4)n3)cc2)CC1               IC50   100 to 1000 nM

---

# target.system: CDK5/p25 (Homo sapiens, UniProt Q00535)
# Construct: purchased Reaction Biology Corporation
# Sequence (Q00535 whole entry): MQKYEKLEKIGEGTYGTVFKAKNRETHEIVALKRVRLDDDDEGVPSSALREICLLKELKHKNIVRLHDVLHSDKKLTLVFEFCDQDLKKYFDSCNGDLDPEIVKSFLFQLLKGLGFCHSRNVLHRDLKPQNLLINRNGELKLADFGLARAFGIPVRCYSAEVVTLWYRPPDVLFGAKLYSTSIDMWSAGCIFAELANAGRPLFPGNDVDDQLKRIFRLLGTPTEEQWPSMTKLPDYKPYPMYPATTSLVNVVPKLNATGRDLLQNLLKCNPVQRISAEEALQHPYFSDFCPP
# Sequence (Q15078 99-307 partner limits assumed): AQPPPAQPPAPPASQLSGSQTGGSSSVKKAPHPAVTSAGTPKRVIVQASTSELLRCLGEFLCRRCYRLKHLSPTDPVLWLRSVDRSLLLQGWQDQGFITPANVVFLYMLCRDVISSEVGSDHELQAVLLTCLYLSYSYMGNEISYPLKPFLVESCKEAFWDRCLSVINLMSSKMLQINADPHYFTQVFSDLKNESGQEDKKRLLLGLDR
# test: Kinase inhibition assay
# Type: biochemical
# assay.conditions: 10 μM ATP; 5-dose IC50 mode
measured.property: IC50

In [3]: df
Out[3]:
                              smiles_string                            target_system  recorded_result
0  CN1CCN(c2ccc(Nc3ncc(/C=C/C#N)c(NC4CCCC4)n3)cc2)CC1  CDK5/p25 (Homo sapiens, UniProt Q00535)       > 10000 nM
